Tested on: HSV-1
Test: Plaque reduction assay, HSV-1 clinical isolates on Vero cells
Type: cell-based
Conditions: Human alphaherpesvirus 1, Vero, isolate HPG031, HSV-1 pol G139R (415G>C or 415G>A); also a TK resistance mutation (footnote e); read-out: Drug susceptibility Foscarnet (FOS)
measured.parameter: IC50

Look up IC50 for this compound: "O=C(O)P(=O)(O)O" < 250 µM

====

Tested on: HSV-2
Test: Plaque reduction assay, HSV-2 clinical isolates on Vero cells
Type: cell-based
Conditions: Human alphaherpesvirus 2, Vero, isolate HPG007, HSV-2 pol R628G (1882C>G); read-out: Drug susceptibility Penciclovir (PCV)
pIC50: −log10 of the molar value.
measured.parameter: pIC50

What reported pIC50 corresponds to "Nc1nc2c(ncn2CCC(CO)CO)c(=O)[nH]1" on HSV-2? < 4.40
